// provenance: patent US20250388666A1

Biological target: T1, CEACAM1 (Sino Biological) (human, UniProt P13688 35-428, limits assumed)
T1 construct: may be the same as CEACAM1-HIS; also called hCEACAM1; biotinylated soluble CEACAM1
T1 sequence: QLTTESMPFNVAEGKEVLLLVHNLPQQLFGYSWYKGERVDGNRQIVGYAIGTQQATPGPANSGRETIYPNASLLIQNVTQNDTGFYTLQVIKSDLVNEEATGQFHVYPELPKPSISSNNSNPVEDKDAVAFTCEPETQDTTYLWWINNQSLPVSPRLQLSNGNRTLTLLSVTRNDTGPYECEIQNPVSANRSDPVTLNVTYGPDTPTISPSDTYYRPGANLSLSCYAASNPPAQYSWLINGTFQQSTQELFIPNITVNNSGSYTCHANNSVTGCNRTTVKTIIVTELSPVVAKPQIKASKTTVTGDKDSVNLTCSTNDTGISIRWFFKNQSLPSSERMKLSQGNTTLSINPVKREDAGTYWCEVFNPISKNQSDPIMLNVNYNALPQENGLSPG
Assay: SPR single-cycle
Measured parameter: fold better than Parent (KD) (fold)
Kindly answer with a numeric value in fold, unit omitted.

Look over these answered cases.
[
  {
    "Binder": "He9/L5 (antibody, IgG4, V domains shown, IgG4 S241P, kappa) VH: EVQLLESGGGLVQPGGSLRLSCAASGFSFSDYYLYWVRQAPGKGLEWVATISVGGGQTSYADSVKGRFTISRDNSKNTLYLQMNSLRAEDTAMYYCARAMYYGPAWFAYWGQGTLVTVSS VL: DIVMTQSPDSLAVSLGERATINCKSSQSLLNSANQKNYLAWYQQKPGQPPKLLIYFASTRESGVPDRFSGSGSGTDFTLTISSLQAEDVAVYYCQSHYPFAFTFGGGTKVEIK",
    "Experimental result": 3.61
  },
  {
    "Binder": "He1/L16 (antibody, IgG4, V domains shown, IgG4 S241P, kappa) VH: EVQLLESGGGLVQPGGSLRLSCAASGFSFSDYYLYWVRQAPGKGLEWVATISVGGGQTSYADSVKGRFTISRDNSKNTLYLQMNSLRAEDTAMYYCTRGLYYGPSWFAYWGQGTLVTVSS VL: DIVMTQSPDSLAVSLGERATINCKSSQSLLNSANQKNYLAWYQQKPGQPPKLLIYFASTRESGVPDRFSGSGSGTDFTLTISSLQAEDVAVYYCQSHYPYPFTFGGGTKVEIK",
    "Experimental result": 1.62
  },
  {
    "Binder": "He13/L16 (antibody, IgG4, V domains shown, IgG4 S241P, kappa) VH: EVQLLESGGGLVQPGGSLRLSCAASGFSFSDYYLYWVRQAPGKGLEWVATISVGGGQTSYADSVKGRFTISRDNSKNTLYLQMNSLRAEDTAMYYCTRGLYYGPSWLAYWGQGTLVTVSS VL: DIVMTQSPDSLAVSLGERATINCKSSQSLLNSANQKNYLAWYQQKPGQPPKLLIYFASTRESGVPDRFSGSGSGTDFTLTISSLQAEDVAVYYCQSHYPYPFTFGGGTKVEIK",
    "Experimental result": 1.51
  },
  {
    "Binder": "Parent VH/L18 (antibody, IgG4, V domains shown, IgG4 S241P, kappa; also called VHp/L18; VH2 N56Q / 18) VH: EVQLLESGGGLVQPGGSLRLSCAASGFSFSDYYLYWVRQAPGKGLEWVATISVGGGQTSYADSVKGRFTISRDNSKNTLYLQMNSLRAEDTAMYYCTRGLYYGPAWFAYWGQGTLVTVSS VL: DIVMTQSPDSLAVSLGERATINCKSSQSLLNSANQKNYLAWYQQKPGQPPKLLIYFASTRESGVPDRFSGSGSGTDFTLTISSLQAEDVAVYYCQSHFPYPFTFGGGTKVEIK",
    "Experimental result": 2.83
  }
]

I am curious: what fold better than Parent (KD) value has been reported for He1/L4 #1 (antibody, IgG4, V domains shown, IgG4 S241P, kappa) VH: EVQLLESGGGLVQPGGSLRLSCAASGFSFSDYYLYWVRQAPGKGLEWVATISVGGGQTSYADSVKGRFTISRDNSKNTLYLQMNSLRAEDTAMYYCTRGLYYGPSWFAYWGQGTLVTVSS VL: DIVMTQSPDSLAVSLGERATINCKSSQSLLNSANQKNYLAWYQQKPGQPPKLLIYFASTRESGVPDRFSGSGSGTDFTLTISSLQAEDVAVYYCQSHFPYYYTFGGGTKVEIK ?
1.28
